system: NIH3T3; assay: qHTS assay to identify novel small-molecules to repurpose for Merkel cell carcinoma treatment (AID 1296009); conditions: MCC and control cell lines, CellTiter-Glo viability, 72 h; at 44.8 µM (top of the series) unless noted; note: nearly all actives have a fitted effect of over 60% in size
Inconclusive results are not listed. Activity calls are given as the source filed them. Calls come from the whole dose curve; as a rule, active = well fitted inhibition curve with a large enough effect; inconclusive = small, poorly fitted or top-dose-only effect; inactive = flat fitted curve, though single readings scatter.
value type: outcome

Some solved cases for reference:
- molecule: "COc1cc(-c2ccc(O)cc2)c(OC)c(O)c1C1=CC(=O)OC1CC(=O)O (configuration not stated)"
  outcome: "inactive"
- molecule: "C/C(=C\\CC/C(C)=C/CC[C@]1(C)CCc2cc(O)cc(C)c2O1)CC/C=C(\\C)C(=O)O"
  outcome: "inactive [at 17.4 µM]"
- molecule: "Cc1cn2cc(CC(=O)N3CCC4(CC3)CN(Cc3ccc(-n5nccn5)cc3Cl)C4)nc2s1"
  outcome: "inactive"
- molecule: "CCC/C=C1\\OC(=O)C2=C1CCC(O)C2O (configuration not stated)"
  outcome: "inactive"
- molecule: "C=C1CCC2C(C)(C(=O)OC)CCCC2(C)C1CCC1=CCOC1=O (configuration not stated)"
  outcome: "inactive"
- molecule: "CC1=C(CO)CC(C(C)C2CCC3C4CC=C5CC(OC6OC(COC7OC(CO)C(O)C(O)C7O)C(O)C(O)C6O)CC(O)C5(C)C4CCC23C)OC1=O (configuration not stated)"
  outcome: "inactive [at 17.4 µM]"
- molecule: "COc1ccc(CCC(=O)O)c(O[C@@H]2O[C@H](CO)[C@@H](O)[C@H](O)[C@H]2O)c1"
  outcome: "inactive"
- molecule: "C=C1C(O)CC2C(C(=O)O)=COC(O[C@@H]3O[C@H](COC(=O)c4ccc(O)cc4)[C@@H](O)[C@H](O)[C@H]3O)C12 (some centres not stated)"
  outcome: "inactive [at 17.4 µM]"
- molecule: "C[C@@H]1O[C@@H](O[C@@H]2[C@@H](O)[C@H](O[C@H]3[C@H](O[C@H]4CC[C@@]5(C)C(CC[C@]6(C)C5CC=C5[C@@H]7CC(C)(C)CC[C@]7(C(=O)O[C@@H]7O[C@H](CO)[C@@H](O)[C@H](O)[C@H]7O)CC[C@]56C)C4(C)C)O[C@H](C(=O)O)[C@@H](O)[C@@H]3O)OC[C@H]2O)[C@H](O)[C@H](O)[C@H]1O (some centres not stated)"
  outcome: "inactive [at 9.27 µM]"
- molecule: "CC1(C)CC[C@]2(C(=O)O)CC[C@]3(C)C(=CCC4[C@@]5(C)CC[C@H](O[C@@H]6O[C@H](C(=O)O)[C@@H](O)[C@H](O)[C@H]6O)C(C)(C)C5CC[C@]43C)C2C1 (some centres not stated)"
  outcome: "inactive [at 17.4 µM]"

Enquiry: Quick check: outcome of CC(C)c1cc2c(c(O)c1O)[C@@]13CCCC(C)(C)C1[C@@H](O)[C@@H]2OC3=O (some centres not stated) ?
Return: inactive

Enquiry: Quick check: outcome of CC1OC(OC2C(OC3C(O[C@H]4CC[C@@]5(C)C(CC[C@]6(C)C5CC=C5C7CC(C)(C)CC(O)[C@]7(C)CC[C@]56C)C4(C)C)OC(C(=O)O)C(O)C3O)OCC(O)C2O)C(O)C(O)C1O (some centres not stated) ?
Return: inactive [at 9.27 µM]

* * *

system: CASKI; assay: Primary qHTS to identify gynecologic anti-cancer compounds using libraries of approved drugs and bioactive compounds (AID 1345084); conditions: Gynecologic cancer cell panel viability, ATPlite luminescence, 48 h; series mostly up to 57.5 µM; note: % is set by controls: 0 for no effect and ±100 for the full control effect; nearly all actives have a fitted effect of over 55% in size
Results filed as inconclusive are left out. Active and inactive are the calls of the source. Calls come from the whole dose curve; as a rule, active = well fitted cell-killing curve with a large enough effect; inconclusive = small, poorly fitted or top-dose-only effect, or effect the other way; inactive = flat fitted curve, though single readings scatter.
value type: activity change, negative = cytotoxicity

- compound: "O=C(OC[C@H]1O[C@H](O[C@H]2CO[C@H](CO)[C@@H](O)[C@@H]2O)[C@H](O)[C@@H](O)[C@H]1O)c1ccccc1"
  experimental system: "CASKI"
  endpoint value: "inactive"
- compound: "C/C=C1/[C@H](O[C@@H]2O[C@H](CO)[C@@H](O)[C@H](O)[C@H]2O)OC=C(C(=O)OC)[C@H]1CC(=O)OCCc1ccc(OC(=O)C[C@@H]2C(C(=O)OC)=CO[C@@H](O[C@@H]3O[C@H](CO)[C@@H](O)[C@H](O)[C@H]3O)/C2=C/C)cc1"
  experimental system: "CASKI"
  endpoint value: "4.82% [at 11.6 µM] (inactive)"
- compound: "CCc1cccc2c3c([nH]c12)[C@@](CC)(CC(=O)O)OCC3"
  experimental system: "CASKI"
  endpoint value: "inactive"
- compound: "O=C(Nc1ccccc1)Nc1ccc(-c2ccc(C(=O)C3CCCC3C(=O)O)cc2)cc1 (stereo not given)"
  experimental system: "CASKI"
  endpoint value: "inactive"

As a next step, examine the compound that follows.
Enquiry: Quick check: activity change, negative = cytotoxicity of Nc1ccc(-n2nc(C(F)(F)F)cc2C(F)(F)F)cc1 ?
Return: inactive

* * *

test system: OV90; assay: Primary qHTS to identify gynecologic anti-cancer compounds using libraries of approved drugs and bioactive compounds (AID 1345084); details: Gynecologic cancer cell panel viability, ATPlite luminescence, 48 h; series mostly up to 57.5 µM; note: % is set by controls: 0 for no effect and ±100 for the full control effect; nearly all actives have a fitted effect of over 55% in size
Inconclusive results are not listed. Active and inactive are the calls of the source. Calls follow the shape of the dose curve; as a rule, active = well fitted cell-killing curve with a large enough effect; inconclusive = small, poorly fitted or top-dose-only effect, or effect the other way; inactive = flat fitted curve, though single readings scatter.
value type: activity change, negative = cytotoxicity

- compound: "OCC1OC(Oc2cc(O)cc(/C=C/c3ccc(OC4OC(CO)C(O)C(O)C4O)cc3O)c2)C(O)C(O)C1O (centres undefined)"
  endpoint value: "inactive"
- compound: "C=C1[C@H]2CCC3[C@]4(C)CCC[C@@](C)(C(=O)O)C4CC[C@]3(C2)[C@H]1OC(C)=O (some centres undefined)"
  endpoint value: "inactive"
- compound: "C=C1CC2C(C)(CCC(=O)O)C(C(C)(C)O)CCC2(C)C2(C(=O)OC)C(=O)C(C)(O)C(=O)C12C (centres undefined)"
  endpoint value: "inactive"
- compound: "C/C=C(\\C)C(=O)OC1CC2C(CC=C3CC(OC4CC(OC)C(OC5CC(OC)C(OC6CC(OC)C(OC7CC(OC)C(OC8CC(OC)C(OC9OC(CO)C(O)C(O)C9O)C(C)O8)C(C)O7)C(C)O6)C(C)O5)C(C)O4)CCC32C)C2(O)CCC(C(C)=O)C12C (centres undefined)"
  endpoint value: "-1.21% [at 6.55 µM] (inactive)"
- compound: "Cc1cc(C(=O)N2Cc3cnn(C)c3Nc3ccccc32)ccc1CNC(=O)N1CCN(Cc2cc(O)cc(O)c2)CC1"
  endpoint value: "inactive"
- compound: "C=CC(C)(O)CCC1C(C)(O)CCC2C(C)(C)CCCC21C (centres undefined)"
  endpoint value: "inactive"

Enquiry: Quick check: activity change, negative = cytotoxicity of COC1CC(O[C@H]2CC[C@@]3(C)C(=CC[C@]4(O)C3[C@H](O)[C@@H](O)[C@]3(C)[C@@H]([C@H](C)O)CC[C@@]34O)C2)OC(C)C1OC1CC(OC)C(OC2CC(OC)C(OC3OC(C)C(OC4OC(CO)C(O)C(O)C4O)C(OC)C3O)C(C)O2)C(C)O1 (some centres undefined) ?
Return: -7.88% [at 11.6 µM] (inactive)

Enquiry: Quick check: activity change, negative = cytotoxicity of C[C@H]1[C@H](C)C[C@@H](C(=O)O)C2CC[C@]3(C)C(=CC[C@@H]4[C@@]5(C)CC[C@H](O)C(C)(C)[C@@H]5CC[C@]43C)[C@@H]21 (some centres undefined) ?
Return: inactive

Enquiry: Quick check: activity change, negative = cytotoxicity of CC/C=C/C=C/C1(C)OC(CC(CO)OC)=CC1=O (centres undefined) ?
Return: inactive

Enquiry: Quick check: activity change, negative = cytotoxicity of NC[C@@H]1O[C@@H](O[C@@H]2[C@@H](O[C@@H]3O[C@H](CO)[C@@H](O)[C@H]3O)[C@H](O)[C@@H](N)C[C@H]2N)[C@@H](N)[C@H](O)[C@H]1O ?
Return: 0.365% [at 11.6 µM] (inactive)

Enquiry: Quick check: activity change, negative = cytotoxicity of CC(C)(C)NS(=O)(=O)c1ccc(-c2ccc3[nH]nc(N)c3c2)cc1 ?
Return: inactive

Enquiry: Quick check: activity change, negative = cytotoxicity of CCOc1ccc(-c2nn3ncccc3c2-c2ccc(S(C)(=O)=O)cc2)cc1 ?
Return: inactive

Enquiry: Quick check: activity change, negative = cytotoxicity of Nc1ncnc2c1c(COc1cccc(Cl)c1)nn2C1CCOCC1 ?
Return: inactive

Enquiry: Quick check: activity change, negative = cytotoxicity of C/C=C(/C)C(=O)OC1C(OC(C)=O)C23C(O)OC4(CCC5C6(C)CCC(OC7OC(C(=O)O)C(O)C(OC8OC(CO)C(O)C(O)C8OC8OC(C)C(O)C(O)C8OC8OCC(O)C(O)C8O)C7OC7OC(CO)C(O)C(O)C7O)C(C)(C)C6CCC5(C)C4(C)CC2OC(C)=O)C3CC1(C)C (centres undefined) ?
Return: 3.74% [at 6.55 µM] (inactive)

Enquiry: Quick check: activity change, negative = cytotoxicity of NC1=NC2(c3cc(NC(=O)c4ccc(F)cn4)ccc3F)COCC2CS1 (centres undefined) ?
Return: inactive

Enquiry: Quick check: activity change, negative = cytotoxicity of C=C1C2(C)CC3C4(C)C=CC(=O)OC(C)(C)C4CCC3(C)C1(C(=O)OC)C(=O)C(C)(O)C2=O (centres undefined) ?
Return: inactive

Ref: PubChem BioAssay (NCATS)
